# Tested on: Pseudomonas fluorescens HPPD polypeptide (wild-type and mutants)
# EXPERIMENTAL PROTOCOL: Coupled HPPD activity assay: turnover and residual turnover in crude HPPD polypeptide extracts with and without Cmpd. 1
# Assay type: biochemical
# DETAILS: presence of 100 μM Cmpd. 1; changes in absorbance (OD) at 320 nm in the coupled assay, 30 min
# Method: For the generation of crude HPPD polypeptide extract in micro titer plates (MTP) for the determination of residual activity in inhibition assays, cells were grown in 40 or 150 μl LB medium containing 1% Glucose (Merck, Darmstadt, Germany) and 100 μg/ml ampicillin in a standard 96 well plate (Thermo Fisher Scientific, Waltham, USA) incubated for about 18 h in a humidity incubator at 37° C. […]
ENDPOINT LABEL: Residual turnover
Note: the reply should be a number with no unit written.

Sure, the documented Residual turnover for SEQ ID NO:18 (protein, mutant HPPD polypeptide) MADLYENPMGLMGFEFIEFASPTPGTLEPIFEIMGFTKVATHRSKNVHLYRQGEINLILNNEPNSIASYFAAEHGPSVCGMAFRVKDSQKAYNRALELGAQPIHIDTGPMELNLPAIKGIGGAPLYLIDRFGEGSSIYDIDFVYLEGVERNPVGAGLKVIDHLTHNVYRGRMVYWANFYEKLFNFREARYFDIKGEYTGLTSKAMSAPDGMIRIPLNEESSKGAGQIEEFLMQFNGEGIQHVAFLTDDLVKTWDALKKIGMRFMTAPGDEYYEMLEGRLPDHGEPVDQLQARGILLDGSSVEGDKRLLLQIFSEKLMGPVFFEFIQRKGDDGFGPDSFKVLFEQMERDQVRRGVLTAD is 0.091
